applied.conditions: in water, 292.15 K
property.measured: solubility (mole fraction)

>>> val("CO/N=C(\\C(=O)N[C@@H]1C(=O)N2C(C(=O)[O-])=C(COC(C)=O)CS[C@H]12)c1csc(N)n1.[Na+]")
0.0186

---

applied.conditions: in formamide, 298.15 K
property.measured: solubility (mole fraction)

>>> val("CO/N=C(\\C(=O)N[C@@H]1C(=O)N2C(C(=O)[O-])=C(COC(C)=O)CS[C@H]12)c1csc(N)n1.[Na+]")
0.0674

---

applied.conditions: in DMF, 300.15 K
property.measured: solubility (mole fraction)

>>> val("CO/N=C(\\C(=O)N[C@@H]1C(=O)N2C(C(=O)[O-])=C(COC(C)=O)CS[C@H]12)c1csc(N)n1.[Na+]")
0.069

---

applied.conditions: in formamide, 300.15 K
property.measured: solubility (mole fraction)

>>> val("CO/N=C(\\C(=O)N[C@@H]1C(=O)N2C(C(=O)[O-])=C(COC(C)=O)CS[C@H]12)c1csc(N)n1.[Na+]")
0.0688

---

applied.conditions: in DMF, 295.15 K
property.measured: solubility (mole fraction)

>>> val("CO/N=C(\\C(=O)N[C@@H]1C(=O)N2C(C(=O)[O-])=C(COC(C)=O)CS[C@H]12)c1csc(N)n1.[Na+]")
0.06

---

applied.conditions: in NMP, 288.15 K
property.measured: solubility (mole fraction)

>>> val("CO/N=C(\\C(=O)N[C@@H]1C(=O)N2C(C(=O)[O-])=C(COC(C)=O)CS[C@H]12)c1csc(N)n1.[Na+]")
0.00279

---

applied.conditions: in water, 295.15 K
property.measured: solubility (mole fraction)

>>> val("CO/N=C(\\C(=O)N[C@@H]1C(=O)N2C(C(=O)[O-])=C(COC(C)=O)CS[C@H]12)c1csc(N)n1.[Na+]")
0.0188

---

applied.conditions: in water, 288.15 K
property.measured: solubility (mole fraction)

>>> val("CO/N=C(\\C(=O)N[C@@H]1C(=O)N2C(C(=O)[O-])=C(COC(C)=O)CS[C@H]12)c1csc(N)n1.[Na+]")
0.0184

---

applied.conditions: in NMP, 305.15 K
property.measured: solubility (mole fraction)

>>> val("CO/N=C(\\C(=O)N[C@@H]1C(=O)N2C(C(=O)[O-])=C(COC(C)=O)CS[C@H]12)c1csc(N)n1.[Na+]")
0.083

---

applied.conditions: in water, 282.15 K
property.measured: solubility (mole fraction)

>>> val("CO/N=C(\\C(=O)N[C@@H]1C(=O)N2C(C(=O)[O-])=C(COC(C)=O)CS[C@H]12)c1csc(N)n1.[Na+]")
0.0182

---

applied.conditions: in NMP, 295.15 K
property.measured: solubility (mole fraction)

>>> val("CO/N=C(\\C(=O)N[C@@H]1C(=O)N2C(C(=O)[O-])=C(COC(C)=O)CS[C@H]12)c1csc(N)n1.[Na+]")
0.00869

---

applied.conditions: in formamide, 305.15 K
property.measured: solubility (mole fraction)

>>> val("CO/N=C(\\C(=O)N[C@@H]1C(=O)N2C(C(=O)[O-])=C(COC(C)=O)CS[C@H]12)c1csc(N)n1.[Na+]")
0.0719

---

applied.conditions: in DMSO, 298.15 K
property.measured: solubility (mole fraction)

>>> val("CO/N=C(\\C(=O)N[C@@H]1C(=O)N2C(C(=O)[O-])=C(COC(C)=O)CS[C@H]12)c1csc(N)n1.[Na+]")
0.0755

---

applied.conditions: in DMSO, 300.15 K
property.measured: solubility (mole fraction)

>>> val("CO/N=C(\\C(=O)N[C@@H]1C(=O)N2C(C(=O)[O-])=C(COC(C)=O)CS[C@H]12)c1csc(N)n1.[Na+]")
0.077

---

applied.conditions: in formamide, 308.15 K
property.measured: solubility (mole fraction)

>>> val("CO/N=C(\\C(=O)N[C@@H]1C(=O)N2C(C(=O)[O-])=C(COC(C)=O)CS[C@H]12)c1csc(N)n1.[Na+]")
0.0733

---

applied.conditions: in water, 287.15 K
property.measured: solubility (mole fraction)

>>> val("CO/N=C(\\C(=O)N[C@@H]1C(=O)N2C(C(=O)[O-])=C(COC(C)=O)CS[C@H]12)c1csc(N)n1.[Na+]")
0.0184

---

applied.conditions: in water, 278.15 K
property.measured: solubility (mole fraction)

>>> val("CO/N=C(\\C(=O)N[C@@H]1C(=O)N2C(C(=O)[O-])=C(COC(C)=O)CS[C@H]12)c1csc(N)n1.[Na+]")
0.018

---

applied.conditions: in DMF, 278.15 K
property.measured: solubility (mole fraction)

>>> val("CO/N=C(\\C(=O)N[C@@H]1C(=O)N2C(C(=O)[O-])=C(COC(C)=O)CS[C@H]12)c1csc(N)n1.[Na+]")
0.0407

---

applied.conditions: in DMF, 283.15 K
property.measured: solubility (mole fraction)

>>> val("CO/N=C(\\C(=O)N[C@@H]1C(=O)N2C(C(=O)[O-])=C(COC(C)=O)CS[C@H]12)c1csc(N)n1.[Na+]")
0.0436

---

applied.conditions: in NMP, 285.15 K
property.measured: solubility (mole fraction)

>>> val("CO/N=C(\\C(=O)N[C@@H]1C(=O)N2C(C(=O)[O-])=C(COC(C)=O)CS[C@H]12)c1csc(N)n1.[Na+]")
0.00192

---

applied.conditions: in DMSO, 308.15 K
property.measured: solubility (mole fraction)

>>> val("CO/N=C(\\C(=O)N[C@@H]1C(=O)N2C(C(=O)[O-])=C(COC(C)=O)CS[C@H]12)c1csc(N)n1.[Na+]")
0.0788

---

applied.conditions: in NMP, 298.15 K
property.measured: solubility (mole fraction)

>>> val("CO/N=C(\\C(=O)N[C@@H]1C(=O)N2C(C(=O)[O-])=C(COC(C)=O)CS[C@H]12)c1csc(N)n1.[Na+]")
0.0118

---

applied.conditions: in water, 285.15 K
property.measured: solubility (mole fraction)

>>> val("CO/N=C(\\C(=O)N[C@@H]1C(=O)N2C(C(=O)[O-])=C(COC(C)=O)CS[C@H]12)c1csc(N)n1.[Na+]")
0.0184

---

applied.conditions: in NMP, 293.15 K
property.measured: solubility (mole fraction)

>>> val("CO/N=C(\\C(=O)N[C@@H]1C(=O)N2C(C(=O)[O-])=C(COC(C)=O)CS[C@H]12)c1csc(N)n1.[Na+]")
0.00524

---

applied.conditions: in water, 298.15 K
property.measured: solubility (mole fraction)

>>> val("CO/N=C(\\C(=O)N[C@@H]1C(=O)N2C(C(=O)[O-])=C(COC(C)=O)CS[C@H]12)c1csc(N)n1.[Na+]")
0.0189

---

applied.conditions: in formamide, 293.15 K
property.measured: solubility (mole fraction)

>>> val("CO/N=C(\\C(=O)N[C@@H]1C(=O)N2C(C(=O)[O-])=C(COC(C)=O)CS[C@H]12)c1csc(N)n1.[Na+]")
0.0644

---

applied.conditions: in formamide, 303.15 K
property.measured: solubility (mole fraction)

>>> val("CO/N=C(\\C(=O)N[C@@H]1C(=O)N2C(C(=O)[O-])=C(COC(C)=O)CS[C@H]12)c1csc(N)n1.[Na+]")
0.0702

---

applied.conditions: in DMF, 285.15 K
property.measured: solubility (mole fraction)

>>> val("CO/N=C(\\C(=O)N[C@@H]1C(=O)N2C(C(=O)[O-])=C(COC(C)=O)CS[C@H]12)c1csc(N)n1.[Na+]")
0.0462

---

applied.conditions: in DMSO, 303.15 K
property.measured: solubility (mole fraction)

>>> val("CO/N=C(\\C(=O)N[C@@H]1C(=O)N2C(C(=O)[O-])=C(COC(C)=O)CS[C@H]12)c1csc(N)n1.[Na+]")
0.0779

---

applied.conditions: in NMP, 290.15 K
property.measured: solubility (mole fraction)

>>> val("CO/N=C(\\C(=O)N[C@@H]1C(=O)N2C(C(=O)[O-])=C(COC(C)=O)CS[C@H]12)c1csc(N)n1.[Na+]")
0.00383

---

applied.conditions: in DMSO, 293.15 K
property.measured: solubility (mole fraction)

>>> val("CO/N=C(\\C(=O)N[C@@H]1C(=O)N2C(C(=O)[O-])=C(COC(C)=O)CS[C@H]12)c1csc(N)n1.[Na+]")
0.0738

---

applied.conditions: in formamide, 290.15 K
property.measured: solubility (mole fraction)

>>> val("CO/N=C(\\C(=O)N[C@@H]1C(=O)N2C(C(=O)[O-])=C(COC(C)=O)CS[C@H]12)c1csc(N)n1.[Na+]")
0.0615

---

applied.conditions: in DMF, 298.15 K
property.measured: solubility (mole fraction)

>>> val("CO/N=C(\\C(=O)N[C@@H]1C(=O)N2C(C(=O)[O-])=C(COC(C)=O)CS[C@H]12)c1csc(N)n1.[Na+]")
0.0662
